Kindly state IC50 for each of the entries shown.
- measured.on: UniProtKB P18405
- Sequence (P18405 whole entry): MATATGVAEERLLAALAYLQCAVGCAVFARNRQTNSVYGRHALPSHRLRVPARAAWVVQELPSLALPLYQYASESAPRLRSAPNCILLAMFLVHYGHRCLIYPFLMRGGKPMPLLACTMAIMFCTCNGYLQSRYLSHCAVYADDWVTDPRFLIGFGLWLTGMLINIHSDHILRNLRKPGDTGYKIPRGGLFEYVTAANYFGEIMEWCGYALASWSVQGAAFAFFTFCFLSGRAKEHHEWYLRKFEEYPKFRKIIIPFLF
- experiment.description: 5α-reductase in vitro inhibitory activity, human type 1

Entry C[C@]12CC[C@H]3[C@@H](CNC4=CC(=O)CC[C@@]43C)[C@@H]1CC[C@@H]2C(=O)NCCC(c1ccccc1)c1ccccc1 : reported IC50 = ? 10 to 100 nM

Entry C[C@]12CC[C@H]3[C@@H](CNC4=CC(=O)CC[C@@]43C)[C@@H]1CC[C@@H]2COC(=O)C12CC3CC(CC(C3)C1)C2 : reported IC50 = ? 10 to 100 nM

Entry C[C@]12CC[C@H]3[C@@H](CNC4=CC(=O)CC[C@@]43C)[C@@H]1CC[C@@H]2C(=O)NC1(c2ccc(F)cc2)CCCC1 : reported IC50 = ? 10 to 100 nM

Entry CC(C)(C)c1cc(NC(=O)[C@H]2CC[C@H]3[C@@H]4CNC5=CC(=O)CC[C@]5(C)[C@H]4CC[C@]23C)cc(C(C)(C)C)c1 : reported IC50 = ? < 10 nM

Entry CC(C)(C)c1ccc(-c2ccc(C(C)(C)C)c(NC(=O)[C@H]3CC[C@H]4[C@@H]5CNC6=CC(=O)CC[C@]6(C)[C@H]5CC[C@]34C)c2)cc1 : reported IC50 = ? < 10 nM

Entry C[C@]12CC[C@H]3[C@@H](CNC4=CC(=O)CC[C@@]43C)[C@@H]1CC[C@@H]2C(=O)NCc1ccc(F)cc1F : reported IC50 = ? 10 to 100 nM
